Below: compounds with pKi recorded for Vasopressin V1a receptor (Homo sapiens, UniProt P37288) in separate published works.
pKi: −log10 of the molar value.
attributeMeasured: pKi

A. Cc1ccccc1N1CCN(C(=O)N2CCNc3cc(Cl)ccc32)CC1
B. COC(=O)c1cccc2c1NC(=O)/C2=N\NC(=O)CN(c1ccc(Cl)cc1)S(=O)(=O)c1ccc(OCCCN(C)C)cc1
C. C[C@@H](NC(=O)[C@H](CC(=O)N1CCC(CCN2CCCCC2)CC1)N1C(=O)[C@@H](N2C(=O)OC[C@@H]2c2ccccc2)[C@H]1/C=C/c1ccccc1)c1ccccc1
Lookup: # desc sort on pKi across 3 compounds Return the labels ranked in the requested order, please.
Found: A, C, B
